From: ChEMBL document CHEMBL1944614

Each item that follows carries a reported IC50.
# MEASURED_ON: Amine oxidase [flavin-containing] B (Homo sapiens, UniProt P27338)
# Sequence (P27338 whole entry): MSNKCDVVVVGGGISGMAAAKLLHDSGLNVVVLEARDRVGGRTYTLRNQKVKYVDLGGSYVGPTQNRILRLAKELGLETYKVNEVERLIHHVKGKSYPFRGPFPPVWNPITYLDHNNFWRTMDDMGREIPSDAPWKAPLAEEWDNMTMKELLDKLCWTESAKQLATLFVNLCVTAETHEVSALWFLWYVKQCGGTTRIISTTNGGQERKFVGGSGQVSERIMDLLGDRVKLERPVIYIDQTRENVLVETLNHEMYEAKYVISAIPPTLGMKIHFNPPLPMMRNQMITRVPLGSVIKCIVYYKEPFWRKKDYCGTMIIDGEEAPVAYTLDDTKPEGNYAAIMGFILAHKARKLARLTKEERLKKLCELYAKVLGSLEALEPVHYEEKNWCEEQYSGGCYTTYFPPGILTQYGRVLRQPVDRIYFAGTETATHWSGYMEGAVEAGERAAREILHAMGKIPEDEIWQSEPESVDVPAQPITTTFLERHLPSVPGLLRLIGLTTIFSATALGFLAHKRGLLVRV
# ASSAY_COMMENT: Inhibition of human recombinant MAOB using kynuramine as substrate by fluorimetry
PROPERTY: IC50

| COMPOUND | ENDPOINT_VALUE |
| --- | --- |
| COc1ccc(NC(=O)N2CCc3ccccc32)cc1 | 2620 nM |
| O=C1NC(=O)/C(=C\c2ccc(Br)cc2)S1 | 228 nM |
| CCOC1CC(c2ccccc2)=NN1c1ccc([N+](=O)[O-])cc1 (stereo not drawn) | 921 nM |
| Cc1[nH]n(-c2ccccc2)c(=O)c1/C=N/NC(=O)c1cccnc1 | 13300 nM |
| Cc1ccc2c(c1)O/C(=C\c1ccccc1)C2=O | 3350 nM |
| O=C1/C(=C/c2ccc(Cl)cc2)Oc2ccccc21 | 305 nM |
| CN(C)c1ccc(/C=C2\Oc3ccccc3C2=O)cc1 | 99 nM |
| O=C1/C(=C/c2ccccc2O)Oc2cc(O)ccc21 | 11500 nM |
